System: CAKI-1 renal
protocolDetails: NCI tumour cell line growth inhibition, 48 h

compound	TGI
NC(=O)c1cc(-c2ccc(-n3ccnc3)cc2)n[nH]c1=O	> 100 µM
COc1ccc(N(C)CN(C)c2nc(N(C)C)nc(N(C)C)n2)cc1	> 100 µM
Cc1oc2nc[nH]c(=O)c2c1C(=O)/C=C/c1ccc(Cl)cc1	22.8 µM
Nc1ccc2c(c1)C1=NNC(=O)CC1C2 (stereo unspecified)	> 100 µM
O=C(Cc1nc2ccccc2c(=O)n1-c1c(Cl)cccc1Cl)c1ccncc1	86.1 µM
C=CCC1C(=O)C(C(=O)OC)N2CCc3c([nH]c4ccccc34)C12 (stereo unspecified)	> 100 µM
Nc1ncnc2c1ncn2C1OC(CSC(F)(F)F)C(O)C1O (stereo unspecified)	> 100 µM
COc1ccc(Cl)cc1Nc1nc(C(F)(F)F)ccc1C(=O)N/N=C/c1ccc([N+](=O)[O-])cc1	4.74 µM
CO[C@H]1O[C@@H]2CO[C@@H](c3ccccc3)O[C@H]2[C@@H]2CC=CCC[C@]12O	> 100 µM
CC12CCC([C@H](N3CCOCC3)/C1=N\OCCN1CCCC1)C2(C)C (stereo partly specified)	> 100 µM
CN(CCC#N)c1ccc(/C=C(\C#N)c2cccc(C(F)(F)F)c2)cc1	> 100 µM
N#Cc1nc(C2CC2)oc1N	> 100 µM
O=C(CCN1CCOCC1)Nc1ccc(F)cc1F	> 100 µM
COc1c(C2=NC(C(C)C)CO2)ccc2ccccc12 (stereo unspecified)	> 100 µM
N#CC(c1ccc(Cl)cc1)c1c(O)nc2ccc(=N)cc-2n1O (stereo unspecified)	> 100 µM
O=C(O)c1nc2cc(C(F)(F)F)ccc2nc1Nc1ccc(Cl)c(Cl)c1	80.3 µM
Cc1ccc(NC(=O)CC/C(CC(=O)C(C)(C)C)=N/NC(=O)C(N)=O)cc1C	> 100 µM
O=C1c2ccccc2NC(c2cc(Cl)cc(Cl)c2O)N1CCc1ccccn1 (stereo unspecified)	> 100 µM
CC1(c2cccc3c2C2(O)C=CC4(CCC32)OCCO4)OCCO1 (stereo unspecified)	> 100 µM
CC1CC(=O)Nc2cc(Cl)ccc2N1C(=O)C1CC1 (stereo unspecified)	> 100 µM
COc1ccc(/C(CCl)=C(\Nc2ccccc2)c2ccc(OC)c(OC)c2)cc1OC	> 100 µM

====

Test system: UACC-257 melanoma
protocolDetails: NCI tumour cell line growth inhibition, 48 h
Item-by-item account of TGI
measurementKind: TGI

compound	result
N=C(N)C1CN(CCc2cnc[nH]2)C(=O)NC1=O (stereo not given)	> 100 µM
CC1=C(C(=O)N[C@@H](Cc2ccccc2)C(=O)O)N2C(=O)[C@@H](NC(=O)[C@@H](N)CC(C)C)[C@H]2SC1	> 100 µM
CN1CCN(CCCOc2cccc3nc(Nc4ccc(Cl)c(F)c4)ccc23)CC1	3.64 µM
CCOc1cc(-c2nc3ccccn3c2/N=C/c2cc([N+](=O)[O-])cc([N+](=O)[O-])c2O)ccc1O	> 100 µM
COc1ccc(N)c(C(O)CCNC(C)=O)c1 (stereo not given)	> 100 µM

====

Tested on: NCI-H23 lung
protocolDetails: NCI tumour cell line growth inhibition, 48 h
Item-by-item account of TGI
measurementKind: TGI

compound	studyTarget	result
CCOC(=O)C1=C(C)NC2SC(=O)/C(=C\c3ccccc3Cl)N2C1c1ccccc1 (stereo not drawn)	NCI-H23 lung	> 100 µM
Cc1cc(N2CCN(C)CC2)nc(NCc2cc(Nc3ccnc4cc(Cl)ccc34)ccc2F)n1	NCI-H23 lung	> 100 µM
N#CC(C#N)=Cc1c(-c2ccccc2)[nH]c2ccccc12	NCI-H23 lung	> 66.3 µM

====

Item-by-item account of GI50
Test system: KM12 colon
protocolDetails: NCI tumour cell line growth inhibition, 48 h
measurementKind: GI50

molecule	result
Cc1cc2cccnc2c2ncccc12	0.78 µM
CCOC(=O)C1=C(C)NC2SC(=O)/C(=C\c3ccccc3Cl)N2C1c1ccccc1 (stereo not drawn)	> 100 µM
Cc1onc(-c2c(F)cccc2Cl)c1-c1ncc(-c2ccc(Cl)cc2)o1	5.59 µM
COc1ccc(Cl)cc1Nc1nc(C(F)(F)F)ccc1C(=O)N/N=C/c1ccc([N+](=O)[O-])cc1	1.79 µM
CN(CCC#N)c1ccc(/C=C(\C#N)c2cccc(C(F)(F)F)c2)cc1	2.97 µM
FC(F)(F)c1nc2ccc(SSc3ccc4nc(C(F)(F)F)[nH]c4c3)cc2[nH]1	> 100 µM
COc1ccc(-c2nn(-c3ccc(NC(=O)c4ccc(Cl)c(C(F)(F)F)c4)cc3)cc2-c2ccncc2)cc1Cl	0.514 µM
CN1CCN(c2ccc(-c3ccc4ncc(C#N)c(Nc5ccc(F)c(Cl)c5)c4c3)cc2)CC1	4.47 µM

====

Item-by-item account of TGI
Tested on: IGROV1 ovarian
protocolDetails: NCI tumour cell line growth inhibition, 48 h

compound	TGI
NC(=O)c1cc(-c2ccncc2)cc(-c2ccccc2)c1N	> 25 µM
CCn1nc(C)c2c1C(=O)NC(C)C(=O)N2 (stereo not drawn)	> 100 µM
N=CCCN(CCC=N)c1ccc(/C=C2\CN(NC(=O)c3ccc(Cl)cc3)C(c3ccccc3)=N2)cc1	> 100 µM

====

Test system: HCT-15 colon
protocolDetails: NCI tumour cell line growth inhibition, 48 h
Item-by-item account of GI50

compound	GI50
CN(CCC#N)c1ccc(/C=C(\C#N)c2cccc(C(F)(F)F)c2)cc1	3.14 µM
COc1cc(/C=N/Nc2ncnc3c2cnn3C(C)C)ccc1O	11 µM
COc1cc(-c2n/c(=C\c3c(O)[nH]c4ccc(Cl)cc34)cc3c2=Nc2ccccc2-3)cc(OC)c1OC	1.56 µM
COc1cccc(C(=O)Nc2ccc(CN3CCc4nc5cc(OC)c(OC)cc5cc43)cc2)c1	3.32 µM
[C-]#[O+].[Cl][Sn]([Cl])[Cl].[Cl][Sn]([Cl])[Cl].[Pt].c1ccc([PH+](c2ccccc2)c2ccccc2)cc1.c1ccc([PH+](c2ccccc2)c2ccccc2)cc1	49.9 µM
C=C1C(=O)O[C@H]2[C@H]1CC/C(Cn1cc(CNCCc3c[nH]c4ccc(Cl)cc34)nn1)=C\CC[C@@]1(C)O[C@@H]21	13.4 µM
COc1cc2c(c(OC)c1OC)C(=O)CC(c1cccc(NC(=O)c3ccc(Br)cc3)c1)O2 (stereo not given)	2.31 µM
Cc1cc(N2CCN(C)CC2)nc(NCc2cc(Nc3ccnc4cc(Cl)ccc34)ccc2F)n1	2.21 µM
O=S(=O)(Nc1cc(Br)c(O)c2ccccc12)c1ccc(F)cc1	2.95 µM
COc1ccc(Cl)cc1Nc1nc(C(F)(F)F)ccc1C(=O)N/N=C/c1ccc([N+](=O)[O-])cc1	1.29 µM

====

Tested on: CAKI-1 renal
protocolDetails: NCI tumour cell line growth inhibition, 48 h

compound	GI50
CC(=O)Nc1ccc(-c2c3nc(c(-c4cc5ccccc5[n+](C)c4)c4ccc([nH]4)c(-c4ccc(NC(C)=O)cc4)c4nc(c(-c5cc6ccccc6[n+](C)c5)c5ccc2[nH]5)C=C4)C=C3)cc1	4.81 µM
Cc1oc2nc[nH]c(=O)c2c1C(=O)/C=C/c1ccc(Cl)cc1	3.06 µM
Oc1c(C(Nc2cccc3ccccc23)c2ccccc2)ccc2cccnc12 (centres undefined)	2.15 µM
O=C(Cn1c(=O)c(-c2ccccc2)nc2ccccc21)c1ccc(Cl)cc1	67.5 µM

====

Item-by-item account of TGI
Test system: SK-MEL-2 melanoma
protocolDetails: NCI tumour cell line growth inhibition, 48 h
measurementKind: TGI

molecule	studyTarget	result
C=C(C)[C@@H]1C[C@H]2O[C@](O)(C(=C)CC(=O)/C=C(/C)C[C@@H]3OC(=O)[C@]24O[C@@H]34)[C@H]1O	SK-MEL-2 melanoma	> 100 µM
N#CC(C#N)=Cc1c(-c2ccccc2)[nH]c2ccccc12	SK-MEL-2 melanoma	> 70.6 µM
COc1ccc(N(C)CN(C)c2nc(N(C)C)nc(N(C)C)n2)cc1	SK-MEL-2 melanoma	> 100 µM
CC(C)(C)N/N=C(\Cc1occc(=O)c1O)C(=O)Nc1ccc([N+](=O)[O-])cc1[N+](=O)[O-]	SK-MEL-2 melanoma	> 100 µM
Clc1ccccc1C(n1ncc2ccccc21)n1ncc2ccccc21	SK-MEL-2 melanoma	> 100 µM
O=C(O)CN=C(C(=NCC(=O)O)c1ccccc1)c1ccccc1	SK-MEL-2 melanoma	> 100 µM
COc1ccc(N)c(C(O)CCNC(C)=O)c1 (stereo not given)	SK-MEL-2 melanoma	> 100 µM
CCOC(=O)c1cc(/C=C/C(C)=C/C(=O)OC)oc1-c1ccccc1	SK-MEL-2 melanoma	> 100 µM
O=C(O)C1CCc2nnc(-c3ccccc3)n21 (stereo not given)	SK-MEL-2 melanoma	> 100 µM
COc1cc(O)c2c(=O)c(OC)c(-c3ccc4c(c3)OCO4)oc2c1	SK-MEL-2 melanoma	> 100 µM
Cc1c(C)c2c(c(C)c1NC(=O)/C=C\C(=O)O)CCC(C)(CCCC(C)CCCC(C)CCCC(C)C)O2 (stereo not given)	SK-MEL-2 melanoma	3.68 µM
CC(CN(C)C)C(=O)c1ccccc1C(=O)O (stereo not given)	SK-MEL-2 melanoma	46.9 µM
Clc1cc(OCc2nn3c(Cc4ccccc4)nnc3s2)ccc1OCc1nn2c(Cc3ccccc3)nnc2s1	SK-MEL-2 melanoma	> 100 µM
COc1c(C2=NC(C(C)C)CO2)ccc2ccccc12 (stereo not given)	SK-MEL-2 melanoma	> 100 µM
CC1=CCC2(C#N)CCC1C2O (stereo not given)	SK-MEL-2 melanoma	> 100 µM
COC(=O)Nc1nc2ccc(Oc3ccc4nc(NC(=O)OC)[nH]c4c3)cc2[nH]1	SK-MEL-2 melanoma	> 100 µM
COc1ccc(-c2cc(-c3ccc(Cl)cc3)n(C3OC(CO)C(O)C(O)C3O)c(=S)c2C#N)cc1 (stereo not given)	SK-MEL-2 melanoma	97.9 µM
COc1ccc(-c2cc(-c3ccccc3)n(C3OCC(OC(C)=O)C(OC(C)=O)C3OC(C)=O)c(=S)c2C#N)cc1 (stereo not given)	SK-MEL-2 melanoma	> 100 µM
CC(C)(C)[Si](C)(C)OCC1CCC(n2cnc3c(=O)[nH]cnc32)O1 (stereo not given)	SK-MEL-2 melanoma	> 100 µM
COc1cc([N+](=O)[O-])c(S(=O)(=O)O)cc1NS(=O)(=O)c1ccc(C)cc1	SK-MEL-2 melanoma	> 100 µM
O=C1CSC(/C=C/c2ccccc2)N1c1ccc(-c2ccc(-n3c(-c4ccccc4)nc4ccccc4c3=O)cc2)cc1 (stereo not given)	SK-MEL-2 melanoma	38.6 µM
N#Cc1nc(C2CC2)oc1N	SK-MEL-2 melanoma	> 100 µM
O=C(O)c1c[nH]c2c(=O)[nH]cnc12	SK-MEL-2 melanoma	> 100 µM
Cc1ccc(S(=O)(=O)OC[C@]23CCC(C)(C)C[C@H]2C2=CC[C@@H]4[C@@]5(C)CCCNC(C)(C)[C@@H]5CC[C@@]4(C)[C@]2(C)CC3)cc1	SK-MEL-2 melanoma	4.83 µM
Nc1ccc(-c2ncc3cc(-c4cccc(-c5cc6cnc(-c7ccc(N)cc7)nc6c6ccccc56)c4)c4ccccc4c3n2)cc1	SK-MEL-2 melanoma	> 100 µM
COc1cc(-c2n/c(=C\c3c(O)[nH]c4ccc(Cl)cc34)cc3c2=Nc2ccccc2-3)cc(OC)c1OC	SK-MEL-2 melanoma	4.9 µM
CN(C)c1ccc2c(c1)CN1C(=O)c3ccccc3C1=N2	SK-MEL-2 melanoma	> 100 µM
O=C1CSC(/C(=C/c2ccccc2)c2nc3ccccc3[nH]2)=N1	SK-MEL-2 melanoma	> 100 µM
CO[C@H]1[C@@H](O)[C@@H](C)O[C@@H](O[C@H]2CC[C@@]3(C)[C@H](CC[C@@H]4[C@@H]3CC[C@]3(C)[C@@H](C5=CC(=O)OC5)CC[C@]43O)C2)[C@@H]1O	SK-MEL-2 melanoma	0.0538 µM
Cc1cc(N2CCN(C)CC2)nc(NCc2cc(Nc3ccnc4cc(Cl)ccc34)ccc2F)n1	SK-MEL-2 melanoma	3.8 µM
